biological target: 3-pTza peptide (Biotin-AminocaproicAcid-A.G.A.G.3-pTza.A.G.A.G); assay: BLI; Octet HTX; biotinylated peptides captured on streptavidin biosensors at 20 nM; IgG in solution, 20-200 nM; 1x HBS-T, 1% BSA
Where no end group is shown, it is not given here. [ ]: non-standard residue; d: D form. The star is where a group is joined. 3‑pTza = 3-phosphotriazolyl alanine (also given as 3-phosphoryl-triazolylalanine); Biotin = O=C1N[C@H]2[C@H](CS[C@H]2CCCCC(=O)*)N1; Ahx = NCCCCCC(=O)O
parameter_measured: Kd

Examples with answers:
| binder | result |
| --- | --- |
| hSC44.20.N32F^L IgG (antibody, V domains shown, as the heavy chain of m4 (heavy chain of m2 with the stated CDR-H3 changes, Kabat numbering); as the light chain of m1 with N32F in CDR-L1 (Kabat numbering); source: Expi293, transfected, purified (CaptoL, SEC); copies: 2 + 2) VH: EVQLVESGGGLVQPGGSLRLSCTASGFSIDSYGFSWVRQAPGKGLEHIGYLTAGGRAFYASWAKSRSTITRNTNENTVTLKMNSLRAEDTAVYYCAKLGTGSRFAIWGQGTLVTVSS VL: DIQMTQSPSSLSASVGDRVTITCRASQSVWRNKFVAWYQQKPGKAPKRLIYAIASLYSGVPSRFSGSGSGTDFTLTISSLQPEDFATYYCVGHYGSENDAYYAFGQGTKVEIK | < 1.54 nM |
| hSC44 IgG (antibody, V domains shown) VH: EVQLVESGGGLVQPGGSLRLSCTASGFSIDSYGFSWVRQAPGKGLEHIGYLTAGGRAFYASWAKSRSTITRNTNENTVTLKMNSLRAEDTAVYYCAKLGSGNPVAIWGQGTLVTVSS VL: DIQMTQSPSSLSASVGDRVTITCRASQSVWRNKNVAWYQQKPGKAPKRLIYAIASLYSGVPSRFSGSGSGTDFTLTISSLQPEDFATYYCVGHYGSENDAYYAFGQGTKVEIK | 1.2 nM |

Given hSC44.20 IgG (antibody, V domains shown, as the heavy chain of m2 with the stated CDR-H3 changes (Kabat numbering); as the light chain of m1; source: Expi293, transfected, purified (CaptoL, SEC); copies: 2 + 2) VH: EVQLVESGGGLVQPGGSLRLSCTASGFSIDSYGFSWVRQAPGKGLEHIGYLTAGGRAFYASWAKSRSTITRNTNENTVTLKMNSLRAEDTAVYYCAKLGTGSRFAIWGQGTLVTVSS VL: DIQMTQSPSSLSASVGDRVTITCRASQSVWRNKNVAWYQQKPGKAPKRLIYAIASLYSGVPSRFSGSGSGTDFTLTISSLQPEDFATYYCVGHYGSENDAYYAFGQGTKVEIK , state its recorded Kd.
< 0.001 nM

// data source = paper PMC12660843
